- test.system: Hα3β4 nAChRs (Homo sapiens, UniProt P30926+P32297)
- Sequence (P32297 32-505): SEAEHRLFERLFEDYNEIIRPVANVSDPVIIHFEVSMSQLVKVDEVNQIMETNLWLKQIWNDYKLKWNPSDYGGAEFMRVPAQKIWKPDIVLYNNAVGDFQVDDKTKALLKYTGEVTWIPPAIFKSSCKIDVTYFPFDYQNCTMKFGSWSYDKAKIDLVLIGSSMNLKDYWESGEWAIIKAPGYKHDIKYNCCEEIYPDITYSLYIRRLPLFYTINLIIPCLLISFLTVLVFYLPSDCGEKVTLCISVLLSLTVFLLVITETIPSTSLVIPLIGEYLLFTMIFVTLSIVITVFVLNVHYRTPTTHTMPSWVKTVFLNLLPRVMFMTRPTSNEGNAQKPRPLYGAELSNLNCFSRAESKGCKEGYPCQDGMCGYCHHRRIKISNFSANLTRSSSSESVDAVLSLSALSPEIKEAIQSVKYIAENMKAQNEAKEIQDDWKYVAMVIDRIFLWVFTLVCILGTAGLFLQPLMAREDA
- Sequence (P30926 22-498): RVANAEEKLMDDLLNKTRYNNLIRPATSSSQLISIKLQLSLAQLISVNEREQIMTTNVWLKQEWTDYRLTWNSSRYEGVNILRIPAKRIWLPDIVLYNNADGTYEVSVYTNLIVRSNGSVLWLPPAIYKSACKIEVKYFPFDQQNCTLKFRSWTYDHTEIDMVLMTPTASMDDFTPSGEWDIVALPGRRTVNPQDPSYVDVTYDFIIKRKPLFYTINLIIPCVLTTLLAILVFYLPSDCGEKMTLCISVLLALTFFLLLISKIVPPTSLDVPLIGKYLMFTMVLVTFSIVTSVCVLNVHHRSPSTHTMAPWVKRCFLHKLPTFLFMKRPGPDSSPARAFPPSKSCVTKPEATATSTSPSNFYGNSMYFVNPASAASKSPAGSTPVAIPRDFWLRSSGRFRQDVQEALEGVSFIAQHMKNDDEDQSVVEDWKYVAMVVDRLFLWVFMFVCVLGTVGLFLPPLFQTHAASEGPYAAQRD
- protocol.details: Calcium accumulation assay, HEK ts201 cells stably expressing Hα3β4 nAChRs
- Type: cell-based
- experimental.conditions: compared to lead compound 1
outcome.measure: change in potency for Hα3β4 nAChRs

| compound | experimental.result |
| --- | --- |
| COc1ccc(NC(=O)CN2CCN(S(=O)(=O)c3cccnc3)CC2)cc1 [Compound 26] | significant decrease |
| O=C(CN1CCN(S(=O)(=O)c2ccc(F)cc2)CC1)Nc1cc[nH]n1 [Compound 12] | significant decrease |
| O=C(CN1CCN(S(=O)(=O)c2ccc(F)cc2)CC1)Nc1ccc(F)cc1 [Compound 14] | no significant change |
| COc1ccc(S(=O)(=O)N2CCN(CC(=O)Nc3ccccc3F)CC2)cc1 [Compound 19] | no significant change |

----------
- test.system: Hα4β2 nAChRs (Homo sapiens, UniProt P17787+P43681)
- Sequence (P43681 29-627 limits assumed): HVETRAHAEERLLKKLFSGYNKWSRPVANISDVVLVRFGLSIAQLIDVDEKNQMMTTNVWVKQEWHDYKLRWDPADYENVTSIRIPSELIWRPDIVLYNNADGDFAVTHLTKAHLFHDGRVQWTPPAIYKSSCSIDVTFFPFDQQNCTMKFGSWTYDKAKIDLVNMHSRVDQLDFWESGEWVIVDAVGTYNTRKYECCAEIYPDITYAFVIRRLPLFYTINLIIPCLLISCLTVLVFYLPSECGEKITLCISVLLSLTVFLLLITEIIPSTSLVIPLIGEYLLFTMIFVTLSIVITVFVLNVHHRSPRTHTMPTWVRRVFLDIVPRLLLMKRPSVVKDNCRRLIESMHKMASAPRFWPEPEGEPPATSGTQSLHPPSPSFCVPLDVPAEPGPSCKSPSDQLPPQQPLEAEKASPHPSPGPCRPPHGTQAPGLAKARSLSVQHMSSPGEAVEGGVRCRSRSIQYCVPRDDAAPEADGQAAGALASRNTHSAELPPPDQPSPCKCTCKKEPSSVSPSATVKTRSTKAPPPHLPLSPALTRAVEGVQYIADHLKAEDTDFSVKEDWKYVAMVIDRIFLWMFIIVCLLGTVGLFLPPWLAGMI
- Sequence (P17787 26-502): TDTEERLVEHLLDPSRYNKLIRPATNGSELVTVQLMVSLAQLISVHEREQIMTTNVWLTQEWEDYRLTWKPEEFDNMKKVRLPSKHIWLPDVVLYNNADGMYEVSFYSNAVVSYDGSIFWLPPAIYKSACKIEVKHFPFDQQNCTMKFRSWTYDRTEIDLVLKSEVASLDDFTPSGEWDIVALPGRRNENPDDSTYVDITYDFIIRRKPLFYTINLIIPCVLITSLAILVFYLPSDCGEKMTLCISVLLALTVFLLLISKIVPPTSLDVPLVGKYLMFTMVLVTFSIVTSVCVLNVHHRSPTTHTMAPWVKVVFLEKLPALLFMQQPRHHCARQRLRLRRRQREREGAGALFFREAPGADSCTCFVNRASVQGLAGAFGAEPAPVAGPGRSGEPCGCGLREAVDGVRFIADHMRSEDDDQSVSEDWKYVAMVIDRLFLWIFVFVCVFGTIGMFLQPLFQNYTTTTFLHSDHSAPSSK
- protocol.details: Calcium accumulation assay, HEK ts201 cells stably expressing Hα4β2 nAChRs
- Assay type: cell-based
- experimental.conditions: compared to lead compound 1
outcome.measure: change in potency for Hα4β2 nAChRs

Examples with answers:
| compound | change in potency for Hα4β2 nAChRs |
| --- | --- |
| COc1ccc(NC(=O)CN2CCN(S(=O)(=O)c3cccnc3)CC2)cc1 | significant decrease |
| O=C(CN1CCN(S(=O)(=O)c2ccc(F)cc2)CC1)Nc1ccc(F)cc1 | no significant change |
| O=C(CN1CCN(S(=O)(=O)c2ccc(F)cc2)CC1)Nc1ccccc1 | no significant change |
| O=C(CN1CCN(S(=O)(=O)c2ccccc2F)CC1)Nc1ccccc1F | no significant change |
| O=C(CN1CCN(S(=O)(=O)c2ccc(F)cc2)CC1)Nc1cc[nH]n1 | significant decrease |

We next turn to a different compound, shown below.
May I ask what change in potency for Hα4β2 nAChRs has been recorded for `COc1ccc(S(=O)(=O)N2CCN(CC(=O)Nc3ccccc3F)CC2)cc1` ? no significant change

----------
For each entry below, report its fold decrease in potency for Hα3β4 nAChRs value.
- test.system: Hα3β4 nAChRs (Homo sapiens, UniProt P30926+P32297)
- protocol.details: Calcium accumulation assay, HEK ts201 cells stably expressing Hα3β4 nAChRs
- Format: cell-based
- experimental.conditions: compared to lead compound 1
The reply should be a number in fold, with the unit left off.

Which fold decrease in potency for Hα3β4 nAChRs is listed for `O=C(CN1CCN(S(=O)(=O)c2ccc(F)cc2)CC1)Nc1ccc2[nH]ncc2c1` ? 3

Same for `COc1ccc(NC(=O)CN2CCN(S(=O)(=O)c3ccc(F)cc3)CC2)cc1` 3

Now this one: `O=C(CN1CCN(S(=O)(=O)c2ccc(F)cc2)CC1)Nc1ccccc1` 2

Query `COc1ccc(S(=O)(=O)N2CCN(CC(=O)Nc3ccc(F)cc3)CC2)cc1` next 2

Now try `O=C(CN1CCN(S(=O)(=O)c2cccnc2)CC1)Nc1ccccc1F` . 5
